- target-entity: T1, hPD-L1mIg fusion protein (human, UniProt Q9NZQ7 19-238)
- T1 construct: also called hPD-L1 mIg protein; biotin-labeled hPD-L1-mouse Fc fusion protein; not shown: mouse Ig (Fc) part
- T1 sequence (Q9NZQ7 19-238): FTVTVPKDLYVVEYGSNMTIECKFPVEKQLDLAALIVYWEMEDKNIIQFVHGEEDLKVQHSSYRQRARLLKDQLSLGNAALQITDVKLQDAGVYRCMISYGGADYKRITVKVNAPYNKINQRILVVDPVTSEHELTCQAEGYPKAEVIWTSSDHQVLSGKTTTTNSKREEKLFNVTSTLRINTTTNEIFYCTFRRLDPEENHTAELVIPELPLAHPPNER
- protocol-summary: SPR, Biacore T200; hPD-L1 mIg amine-coupled on CM5 chip, antibody injected at 1-32 nM, full kinetic analysis
- Experimental: The binding affinities and kinetics between the humanized anti-hPD-L1 mAbs and the hPD-L1 protein were assessed with Biacore T200 (GE Healthcare Life Sciences). The hPD-L1 mIg protein was immobilized on the sensor chip CM5 by amine coupling. […] Binding kinetic parameters, including association rate (Kₒₙ), dissociation rate (Koff), and affinity constant (KD) were determined by full kinetic analysis. […]
readout-kind: kon (M⁻¹ s⁻¹)
Give bare numbers, in M⁻¹ s⁻¹.

Field: example entries. Status: answers known.
binder="anti-PD-L1 HC2 + LC1 (antibody, V domains shown, Humanized antibody, Humanized VH 2 + Humanized VL 1; also called H2+L1; H21) VH: QVQLVQSGAEVKKPGASVKVSCKASGFNIKDTYMYWVRQAPGQGLEWIGRIDPANDNTKYAPKFQGRVTITADTSTNTAYMELSSLRSEDTAVYYCARAKNLLNYFDYWGQGTLVTVSS VL: DIQMTQSPSSLSASVGDRVTITCRASQEISGYLSWYQQKPGKAPKRLIYATSTLDSGVPSRFSGSGSGTDFTLTISSLQPEDFATYYCLQYAIYPLTFGQGTKLEIKR" test_result=1.86e+06
binder="anti-PD-L1 HC2 + LC2 (antibody, V domains shown, Humanized antibody, Humanized VH 2 + Humanized VL 2; also called H2+L2; H22) VH: QVQLVQSGAEVKKPGASVKVSCKASGFNIKDTYMYWVRQAPGQGLEWIGRIDPANDNTKYAPKFQGRVTITADTSTNTAYMELSSLRSEDTAVYYCARAKNLLNYFDYWGQGTLVTVSS VL: DIQMTQSPSSLSASVGDRVTITCRASQEISGYLSWLQQKPGKAPKRLIYATSTLQSGVPSRFSGSRSGTDYTLTISSLQPEDFATYYCLQYAIYPLTFGQGTKLEIKR" test_result=2.05e+06
binder="anti-PD-L1 HC3 + LC1 (antibody, V domains shown, Humanized antibody, Humanized VH3 + Humanized VL 1; also called H3+L1; H31) VH: EVQLVQSGAEVKKPGASVKVSCKASGFNIKDTYMYWVRQAPGQGLEWMGRIDPANDNTKYAQKFQGRVTITADTSTNTAYMELSSLRSEDTAVYYCARAKNLLNYFDYWGQGTLVTVSS VL: DIQMTQSPSSLSASVGDRVTITCRASQEISGYLSWYQQKPGKAPKRLIYATSTLDSGVPSRFSGSGSGTDFTLTISSLQPEDFATYYCLQYAIYPLTFGQGTKLEIKR" test_result=1.25e+06
binder="anti-PD-L1 HC3 + LC3 (antibody, V domains shown, Humanized antibody, Humanized VH3 + Humanized VL 3; also called H3+L3; H33) VH: EVQLVQSGAEVKKPGASVKVSCKASGFNIKDTYMYWVRQAPGQGLEWMGRIDPANDNTKYAQKFQGRVTITADTSTNTAYMELSSLRSEDTAVYYCARAKNLLNYFDYWGQGTLVTVSS VL: DIQMTQSPSSLSASVGDRVTITCRASQEISGYLSWYQQKPGKAPKRLIYATSTLDSGVPSRFSGSRSGSDYTLTISSLQPEDFATYYCLQYAIYPLTFGQGTKLEIKR" test_result=1.46e+06
binder="anti-PD-L1 parental (mouse-human chimeric mAb) (antibody, human IgG1, kappa, V domains shown, its variable domains are the same; also called parental chimeric antibody; parental (PA200)) VH: EVQLQQSGAELVKPGASVKLSCTASGFNIKDTYMYWVKQRPEQGLECIGRIDPANDNTKYDPKFQGKATITADTSSNTAYVQLASLTSEDTAVYYCARAKNLLNYFDYWGQGTTLTVSS VL: DIQMTQSPSSLSASLGERVTLSCRASQEISGYLSWLQQKPDGTIKRLIYATSTLDSGVPKRFSGSRSGSDYSLTISSLESEDFADYYCLQYAIYPLTFGAGTKLELKR" test_result=924000

Give measured kon for every item shown.
1. anti-PD-L1 HC3 + LC2 (antibody, V domains shown, Humanized antibody, Humanized VH3 + Humanized VL 2; also called H3+L2; H32) VH: EVQLVQSGAEVKKPGASVKVSCKASGFNIKDTYMYWVRQAPGQGLEWMGRIDPANDNTKYAQKFQGRVTITADTSTNTAYMELSSLRSEDTAVYYCARAKNLLNYFDYWGQGTLVTVSS VL: DIQMTQSPSSLSASVGDRVTITCRASQEISGYLSWLQQKPGKAPKRLIYATSTLQSGVPSRFSGSRSGTDYTLTISSLQPEDFATYYCLQYAIYPLTFGQGTKLEIKR
2. anti-PD-L1 HC2 + LC3 (antibody, V domains shown, Humanized antibody, Humanized VH 2 + Humanized VL 3; also called H2+L3; H23) VH: QVQLVQSGAEVKKPGASVKVSCKASGFNIKDTYMYWVRQAPGQGLEWIGRIDPANDNTKYAPKFQGRVTITADTSTNTAYMELSSLRSEDTAVYYCARAKNLLNYFDYWGQGTLVTVSS VL: DIQMTQSPSSLSASVGDRVTITCRASQEISGYLSWYQQKPGKAPKRLIYATSTLDSGVPSRFSGSRSGSDYTLTISSLQPEDFATYYCLQYAIYPLTFGQGTKLEIKR
3. anti-PD-L1 HC1 + LC2 (antibody, V domains shown, Humanized antibody, Humanized VH 1 + Humanized VL 2; also called H1+L2; H12) VH: QVQLVQSGAEVKKPGASVKVSCKASGFNIKDTYMYWVRQAPGQGLEWMGRIDPANDNTKYAQKFQGRVTITADTSTSTAYMELSSLRSEDTAVYYCARAKNLLNYFDYWGQGTLVTVSS VL: DIQMTQSPSSLSASVGDRVTITCRASQEISGYLSWLQQKPGKAPKRLIYATSTLQSGVPSRFSGSRSGTDYTLTISSLQPEDFATYYCLQYAIYPLTFGQGTKLEIKR
4. anti-PD-L1 HC1 + LC1 (antibody, V domains shown, Humanized antibody, Humanized VH 1 + Humanized VL 1; also called H1+L1; H11) VH: QVQLVQSGAEVKKPGASVKVSCKASGFNIKDTYMYWVRQAPGQGLEWMGRIDPANDNTKYAQKFQGRVTITADTSTSTAYMELSSLRSEDTAVYYCARAKNLLNYFDYWGQGTLVTVSS VL: DIQMTQSPSSLSASVGDRVTITCRASQEISGYLSWYQQKPGKAPKRLIYATSTLDSGVPSRFSGSGSGTDFTLTISSLQPEDFATYYCLQYAIYPLTFGQGTKLEIKR
5. anti-PD-L1 HC1 + LC3 (antibody, V domains shown, Humanized antibody, Humanized VH 1 + Humanized VL 3; also called H1+L3; H13) VH: QVQLVQSGAEVKKPGASVKVSCKASGFNIKDTYMYWVRQAPGQGLEWMGRIDPANDNTKYAQKFQGRVTITADTSTSTAYMELSSLRSEDTAVYYCARAKNLLNYFDYWGQGTLVTVSS VL: DIQMTQSPSSLSASVGDRVTITCRASQEISGYLSWYQQKPGKAPKRLIYATSTLDSGVPSRFSGSRSGSDYTLTISSLQPEDFATYYCLQYAIYPLTFGQGTKLEIKR

1. 1.65e+06
2. 2.26e+06
3. 1.46e+06
4. 869000
5. 1.1e+06
